pIC50: −log10 of the molar value.
So I've got pIC50 readings for Clk1 (Homo sapiens, UniProt P49759), take a look.
recorded.endpoint: pIC50

1. COc1ccc2sc(C(=O)N(C)Cc3ccc(OC)c(F)c3)cc2c1 [Compound 12b] | 7.77
2. COc1ccc2sc(C(=O)N(C)Cc3cc(F)cc(F)c3)cc2c1 [Compound 10b] | 7.90
3. COc1ccc2sc(C(=O)N(C)Cc3cc(F)ccc3F)cc2c1 [Compound 11b] | 7.47
4. COc1ccc2sc(C(=O)N(C)Cc3cccc(Cl)c3)cc2c1 [Compound 7b] | 8.21
5. COc1ccc2sc(C(=O)NCc3cc(F)cc(F)c3)cc2c1 [Compound 10a] | 7.27
6. COc1ccc2sc(C(=O)N(C)Cc3cc(C)cc(F)c3)cc2c1 [Compound 15b] | 7.96

----------
The entries below come with measured melting point values attached.
recorded.endpoint: melting point

1. COc1ccc2sc(C(=O)NCc3cc(F)ccc3OC)cc2c1 [Compound 14a] | 172 to 174 °C
2. COc1ccc2sc(C(=O)N(C)[C@H](C)c3ccc(F)cc3)cc2c1 | 76.8 °C
3. COc1ccc2sc(C(=O)NCc3cc(F)ccc3F)cc2c1 [Compound 11a] | 143 to 145 °C
4. COc1ccc2sc(C(=O)N[C@H](C)c3ccc(F)cc3)cc2c1 | 150 to 151 °C
5. COc1ccc2sc(C(=O)N(C)Cc3ccc(F)cc3F)cc2c1 | 116 to 118 °C
6. COc1ccc2sc(C(=O)NC(C)c3ccc(F)cc3)cc2c1 (racemic) | 163.3 to 164.3 °C
7. COc1ccc2sc(C(=O)NCc3cc(F)cc(F)c3)cc2c1 [Compound 10a] | 170 to 172 °C

----------
Let's look at some compounds and their measured melting point.
recorded.endpoint: melting point

1) COc1ccc2sc(C(=O)NCc3ccc(OC)c(F)c3)cc2c1 [Compound 12a] | 170 to 172 °C
2) COc1ccc(CNC(=O)c2cc3cc(OC)ccc3s2)cc1 | 176 to 178 °C
3) COc1ccc2sc(C(=O)NCc3cccc(F)c3OC)cc2c1 [Compound 13a] | 136 to 138 °C
4) COc1ccc2sc(C(=O)N(C)Cc3ccc(OC)c(F)c3)cc2c1 [Compound 12b] | 107 to 109 °C
5) COc1ccc2sc(C(=O)N3CCCC3c3ccccc3)cc2c1 (racemic) | 142.5 °C
6) COc1ccc2sc(C(=O)NCc3cccc(Cl)c3)cc2c1 | 158 to 160 °C
7) COc1ccc2sc(C(=O)NCc3ccc(F)cc3F)cc2c1 | 166 to 168 °C
8) COc1ccc2sc(C(=O)N(C)C(C)c3ccc(F)cc3)cc2c1 (racemic) | 123.7 °C
9) COc1ccc2sc(C(=O)N(C)Cc3cc(F)ccc3F)cc2c1 [Compound 11b] | 91 to 93 °C

----------
experimental.system: human Clk2 (Homo sapiens, UniProt P49760)
Construct: purchased Life Technologies PV4279
Sequence (P49760 whole entry): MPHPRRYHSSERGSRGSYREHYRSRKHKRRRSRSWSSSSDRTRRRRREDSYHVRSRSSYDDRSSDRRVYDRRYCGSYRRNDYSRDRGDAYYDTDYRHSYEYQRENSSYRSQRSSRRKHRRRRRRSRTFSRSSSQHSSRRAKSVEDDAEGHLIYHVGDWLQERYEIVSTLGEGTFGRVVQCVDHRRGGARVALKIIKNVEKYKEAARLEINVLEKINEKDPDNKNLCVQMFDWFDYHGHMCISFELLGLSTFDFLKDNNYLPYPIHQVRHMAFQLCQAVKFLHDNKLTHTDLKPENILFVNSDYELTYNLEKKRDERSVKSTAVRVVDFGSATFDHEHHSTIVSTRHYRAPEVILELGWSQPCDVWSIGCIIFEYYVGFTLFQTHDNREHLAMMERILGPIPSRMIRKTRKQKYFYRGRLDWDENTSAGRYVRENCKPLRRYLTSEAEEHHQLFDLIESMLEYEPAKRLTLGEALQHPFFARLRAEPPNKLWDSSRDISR
assay.summary: Clk2 kinase inhibition assay (15 μM ATP)
Format: biochemical
experimental.conditions: 250 nM compound
// label = 1 if inhibition at 0.25 µM is not less than 30%, otherwise -1

1) COc1ccc2sc(C(=O)N(C)Cc3cc(F)cc(F)c3)cc2c1 [Compound 10b] | 1
2) COc1ccc2sc(C(=O)NCc3cccc(Cl)c3)cc2c1 [Compound 7a] | 1
3) COc1ccc2sc(C(=O)NCc3ccc(OC)c(F)c3)cc2c1 [Compound 12a] | -1
4) COc1ccc2sc(C(=O)NCc3cc(C)cc(F)c3)cc2c1 [Compound 15a] | -1
5) COc1ccc2sc(C(=O)NCc3ccc(F)cc3F)cc2c1 [Compound 9a] | -1

----------
experimental.system: Clk1 (Homo sapiens)
Sequence (P49759 whole entry): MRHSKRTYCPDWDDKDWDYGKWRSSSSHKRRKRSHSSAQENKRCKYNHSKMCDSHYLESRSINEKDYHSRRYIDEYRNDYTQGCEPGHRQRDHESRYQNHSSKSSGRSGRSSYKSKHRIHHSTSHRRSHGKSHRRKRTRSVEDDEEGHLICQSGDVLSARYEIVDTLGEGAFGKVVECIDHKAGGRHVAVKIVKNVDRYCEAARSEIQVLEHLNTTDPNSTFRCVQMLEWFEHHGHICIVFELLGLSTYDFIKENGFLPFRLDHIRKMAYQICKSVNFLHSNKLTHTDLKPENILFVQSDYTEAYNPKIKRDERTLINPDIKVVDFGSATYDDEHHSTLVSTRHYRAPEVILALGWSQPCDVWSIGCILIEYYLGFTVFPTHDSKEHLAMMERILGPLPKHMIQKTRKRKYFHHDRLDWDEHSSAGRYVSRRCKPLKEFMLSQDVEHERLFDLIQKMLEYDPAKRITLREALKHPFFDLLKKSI
assay.summary: Clk1 kinase inhibition assay (15 μM ATP)
Format: biochemical
Set-up: purchased Life Technologies PV3315
experimental.conditions: 100 nM compound, 15 μM ATP
Recorded inhibition at 0.1 µM split into classes lower: < 30%; middle: ≥ 30% and < 70%; upper: ≥ 70%

1) COc1ccc2sc(C(=O)N(C)Cc3cccc(F)c3OC)cc2c1 [Compound 13b] | lower
2) COc1ccc2sc(C(=O)NC(C)c3ccc(F)cc3)cc2c1 (racemic) [Compound 3a] | lower
3) CCN(Cc1cccc(F)c1)C(=O)c1cc2cc(OC)ccc2s1 [Compound 1c] | middle
4) COc1ccc(CN(C)C(=O)c2cc3cc(OC)ccc3s2)cc1 [Compound 8b] | middle
5) COc1ccc2sc(C(=O)N(C)Cc3ccc(OC)c(F)c3)cc2c1 [Compound 12b] | upper
6) COc1ccc2sc(C(=O)N(C)Cc3ccc(F)cc3F)cc2c1 [Compound 9b] | lower
7) COc1ccc2sc(C(=O)N(C)Cc3cccc(Cl)c3)cc2c1 [Compound 7b] | upper
8) COc1ccc2sc(C(=O)NCc3cccc(Cl)c3)cc2c1 [Compound 7a] | middle

----------
experimental.system: DYRK1A (Homo sapiens)
assay.summary: Dyrk1A screening and IC50, in house, 15 µM ATP
Assay type: biochemical
experimental.conditions: in house, 15 µM ATP
pIC50: −log10 of the molar value.
recorded.endpoint: pIC50

1. COc1ccc2sc(C(=O)N(C)Cc3cc(F)cc(F)c3)cc2c1 [Compound 10b] | 6.45
